Assay: VBL PK study in dogs (clinical trial, serum)
Settings: dog, iv, 2.5 mg/m2, AUCt, dogs, 2.5 mg/m^2 IV bolus, 0 to 24 h, observed, concomitant prednisolone only
MEASURE: AUC(0-t) (µM·h)

1. CC[C@]1(O)C[C@@H]2CN(CCc3c([nH]c4ccccc34)[C@@](C(=O)OC)(c3cc4c(cc3OC)N(C)[C@H]3[C@@](O)(C(=O)OC)[C@H](OC(C)=O)[C@]5(CC)C=CCN6CC[C@]43[C@@H]65)C2)C1 [VBL, Vinblastine]; 0.186

====

Assay: VBL PK study in wild‐type and Mdr1a/b(−/−) mice, observed serum and tissue data
Conditions: female, Mdr1a/b (−/−) knock-out, FVB background, mouse, in vivo, iv, 2 mg/kg, t1/2, Mdr1a/b (−/−) mice, gut, 2 mg/kg IV, Obs
MEASURE: half-life (h)

1) CC[C@]1(O)C[C@@H]2CN(CCc3c([nH]c4ccccc34)[C@@](C(=O)OC)(c3cc4c(cc3OC)N(C)[C@H]3[C@@](O)(C(=O)OC)[C@H](OC(C)=O)[C@]5(CC)C=CCN6CC[C@]43[C@@H]65)C2)C1; 3.86
